Target: c-Abl kinase domain (Mus musculus)
Sequence (P00520 242-493 limits assumed): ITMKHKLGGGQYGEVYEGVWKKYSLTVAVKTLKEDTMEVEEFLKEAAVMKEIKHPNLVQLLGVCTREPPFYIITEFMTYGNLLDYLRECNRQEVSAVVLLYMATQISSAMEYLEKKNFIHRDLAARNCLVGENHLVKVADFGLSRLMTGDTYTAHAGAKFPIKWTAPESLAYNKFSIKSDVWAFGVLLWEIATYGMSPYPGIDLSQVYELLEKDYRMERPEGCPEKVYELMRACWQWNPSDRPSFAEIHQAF
Assay: pTyr-Var library bacterial peptide display kinase screen (enrichment scores);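 further: log2 fold change in enrichment of variant over reference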
Format: biochemical
Conditions: fig5-data2, sheet "Abl"; Screen for the variant/reference peptide pair, pTyr-Var library
// reported Screen per item
Output spec: single numeric token, no unit.

Field: example entries. Status: answers known.
AKKMKYFEGVS [PRKDC_Y682_I680M]: 0.9485
LENSTYQFICV [CRB1_Y760_R764C_YF]: 0.05369
REGDKYVSHGA [ASS1_Y113_A111D]: 0.7285

Now consider a different sequence.
Recall the reported Screen of PFQGAYLKINK [MYO1B_Y967_E969K] on c-Abl kinase domain (Mus musculus) and write it down.
1.339

====

biological target: c-Src kinase domain (Homo sapiens); assay: pTyr-Var library bacterial peptide display kinase screen (enrichment scores); type: biochemical; conditions: sheet "Src"; variant peptide versus its reference peptide in the pTyr-Var library screen;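 further: log2 fold change in enrichment of variant over reference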
Binarize Screen at 0.3; below is yes, at or above is no.

DFFDLYGGKKF [PTPN11_Y66_E69K_YF]: no
RRIFSYRGHLW [VHL_Y112_H110Y_YF]: yes
FFLGAYDRFLP [SLC22A5_Y486_V481F_YF]: yes
NHFKIYNLFAE [PTEN_Y68_C71Y_YF]: yes
HRGHLYLAIEF [TEK_Y899_Y897H_YF]: no

Does the reported Screen of the following sequence sit strictly below 0.3? LNPLIYTLRNA [OR4C46_Y285_K288R]
no

Take the sequence RKVLVYDKLNV [ROR2_Y624_N620K] and say whether its Screen is less than 0.3.
yes

Bench note: check whether LLDGEYFTLQI [TP53_Y327_P322L] shows Screen below 0.3
no
